Below, each entry is listed alongside its reported protease stability score.
method: protease stability score; higher = more stable; yeast display proteolysis, trypsin and chymotrypsin;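 note: relative to predicted unfolded state with 0 unfolded-like and 1 meaning tenfold more protease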
Give only the figure.

[
  {
    "sequence.code": "DEEEKLVEEALREFLRDLMTGDEDSLLRQIDPNARHVYNGQEFHGRKWFEEMHKRMGMELKRIEIKDSDIVNGRAISHVEVHSRIGDKRLRIETEIVTLKVNGQWLVKSLSLI",
    "parameter.measured": "protease stability score",
    "result.number": 1.15
  },
  {
    "sequence.code": "DELTNEHERYLHFLWEMIKTGDEENLENLVDPHARLEFENREFHGREDVRKWLVEIRFHRVHLRRMEVQGNKVILDTELDGEFNGQRVRHTTKTHALKVNGQWLLHELIIK",
    "parameter.measured": "protease stability score",
    "result.number": 1.25
  },
  {
    "sequence.code": "TEMLEEALRFVEQLIKAILTGDESVFRNLVDPNAKNEIDGVEIHGWEFLNVFHKRYDHVTHLHFVLRSVRVYGDKLEMHGVVEIHGVIDGQERNFEVDTEIHVEKINGQWILRSLYVR",
    "parameter.measured": "protease stability score",
    "result.number": 1.11
  },
  {
    "sequence.code": "SEDEESAKFVIQLILHSLRTGDFKIIEDLLDPNARVQINGVELHGRERVHEHWERIDHIEDVRIREVSVQGDKLVLNVERREKQGDYESSTKVIIYARKVNGKWVIDEVEVR",
    "parameter.measured": "protease stability score",
    "result.number": 2.55
  },
  {
    "sequence.code": "DEDEKASKEFMRLVMEVLKTGDWKSLVDLADPHARLHINGREIHGREKISEILLHELDLLGFKHMEVRVHHVEVQGEKMKFDVRHSLDVNGVERHETSMIISVKFDGQWWLKEEIVK",
    "parameter.measured": "protease stability score",
    "result.number": -0.07
  }
]

So for `DEHDKLMKDIAKLLLELWKTGDEEIFQHLMDPDTRMDVNGVQLHGMELIVKILRDEIHKIKNVKVLDKRNTVIGDKIHLDVEIVIGDKRIRMKLDVIVVNGRIKVFEIHTE` , the logged protease stability score turned out to be 1.36

====

Reported values of protease stability score for individual entries
method: protease stability score; higher = more stable; yeast display proteolysis, trypsin and chymotrypsin;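 note: relative to predicted unfolded state with 0 unfolded-like and 1 meaning tenfold more protease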
# output: bare number, no unit

Guide cases for protease stability score, answers given:
[
  {
    "sequence.code": "DDRERDLRELFKRLHEVLETGNEEEMTELIDPHARRTVGDKKIHGRELIAKHLVHEVLRYDHWHLEMHDWRFQGEKIELHGNFRIEVDGKQIVIDTRLTATKVDGRWRITEIRII",
    "protease stability score": 0.743
  },
  {
    "sequence.code": "DEEHEFLITMVKLVSTWFLTGDFETYIDLADPNTRQHVNGRYSVGREDAVKLEEEMLREIRIRDIRVKHIIRQGDKIELEFRFHMEVDGRVEDITVEVRIFLVNGRLHFLEIRFD",
    "protease stability score": 0.743
  },
  {
    "sequence.code": "DDEKEILRIAIEWSELVSNTGDEKTVEHLADPHVRIHYGDKDYVGRERMVEFVHRFKNLKLEIKDTDVQGEYIHVNGKMKFNGRTFDVEIVVFKIDGVWFEKSVEFK",
    "protease stability score": 1.38
  },
  {
    "sequence.code": "DEDEEDAQEILKRFVHANETGDWRILEELIDPNARYEQGDKHLVGREEVLRRMIELGIKHTYIHSFSVQGDKLRLDTSIQFENHRVKTHLILNKINGRWVIKSIHIH",
    "protease stability score": 1.91
  },
  {
    "sequence.code": "SEDERDAHRAWEIWLKTLETGNEEDMLKLMDPNVRIIIGDKHHHGREELEKILRRYDHIDMEHVHLRHLEVQGEKVIYIGEIHMVFHFNGVTRRLHTEAILILTKVNGRWSQKSLEIK",
    "protease stability score": 1.32
  },
  {
    "sequence.code": "DEHEQEANEMMHRSLETLETGDERLLRHMADPNTKVQVGDKTWHGWHLLHEYRKEFRHARIIIREIDIQGEFVFLHGELDVNGKRLERTIIQLKVDGRWILHHMHLR",
    "protease stability score": 0.435
  },
  {
    "sequence.code": "DDLEKVSHWFNRMWTEILKTGDEKLLKDLLDPHTKLIFENRHEHGREHMISFFKKLLDEMRVHDVKIRDIEVQGDKVISDTSLDLEINGRSFEVETRLLAVKVNGRWYVHEIELR",
    "protease stability score": 2.36
  },
  {
    "sequence.code": "DETTQYIREILEIMRRTFHTGDFDTMLELMDPHARIVIGEKDEHGWEAAHHQMEYLLREWRIHDVEIRDVELQGDKIRVKLIVTGRIGDKLTLIDVELHVLKVNGKWYLKEISIR",
    "protease stability score": 1.19
  }
]

sequence `DDETHEYEEAMELWVKALTTGNEDLLKDLHDPHTLTRINGRTEHGRHTWVEIRRKLGVKHLHIETSRLIDGRVHLHARIHVGDKNLEIIVIIVKVNGRWLTSEINIH` , protease stability score observed: 0.951

The recorded protease stability score for `DHEDDEFDFAIELWVTIMKTGDEEFLERYVDPHARLIVGDKRFHGREVIEFMLRRIDVLDRIEVEHRQSVNGRMIIHQHLHHAIDGRRNEVRMRVVVHKVDGRWDLDELQFD` is 1.36

The sequence identified as `SEEHEKTRRALELWIDVMKTGDPEHILRLLDPHTKIHQGEFELHGRHDAHRWLSRLGVERIHFELKDVRYFDGQILVDGVIFFNGRESRVNVVAMKVNGRWFVDSLEIQ` registered its protease stability score at 0.755
